# Tested on: 786-0 renal
# assay_comment: NCI tumour cell line growth inhibition, 48 h
Where a SMILES comes first, the peptide text is derived from it. [ ]: non-standard residue; d: D form. The star is where a group is joined. Bn2Val = CC(C)[C@@H](C(=O)*)N(Cc1ccccc1)Cc1ccccc1; NHPiperonyl = c1cc2c(cc1CN*)OCO2; NMeV = CN[C@H](C(=O)O)C(C)C; dNMeA = CN[C@H](C)C(=O)O
I'd be grateful if you could share measured TGI for these entries.

Q) Entry under review: O=C(CC(O)c1cccnc1)CC(O)c1cccnc1 (stereo not given) . Reported TGI?
A) 39.2 µM

Q) Next record, please: COc1cccc(-c2cc(=O)c3cc(C)c(C)c(C(=O)O)c3o2)c1
A) > 100 µM

Q) Next record, please: CCOc1cccc2sc(N)nc12
A) > 100 µM

Q) Next record, please: CCCCCCCCCCCCCCCCCc1cc(Cl)nc(Cl)n1
A) > 100 µM

Q) Next record, please: COc1ccc2c3c(ccc2c1)NC(C(=O)O)CC3 (stereo not given)
A) > 100 µM

Q) Next record, please: COc1cc(C(=O)O)cc2c1[nH]c1ccccc12
A) > 25 µM

Q) Next record, please: Cc1cc(Cl)ccc1NC(=O)C1C(=O)C(=O)N(c2ccc(Cl)cc2C)C1=O (stereo not given)
A) > 100 µM

Q) Next record, please: Cc1ccc(N/C(=C(/C(Cl)=C(Cl)Cl)[N+](=O)[O-])n2nnc3ccccc32)cc1
A) 38.4 µM

Q) Next record, please: O=C(CC(C(=O)c1cccs1)c1ccsc1)c1ccc(Cl)cc1 (stereo not given)
A) > 100 µM

Q) Next record, please: Nc1ncnc2c1ncn2C1OC(CO)CC1O (stereo not given)
A) 45.8 µM

Q) Next record, please: O=C1c2ccccc2-c2nc(-c3cccs3)cc3c2c1nc1ccccc13
A) > 100 µM

Q) Next record, please: Nc1ccc([As](=O)(O)O)cc1
A) > 100 µM

Q) Next record, please: O=c1oc2cc(O)ccc2c(O)c1C(c1ccc2ccccc2c1)c1c(O)c2ccc(O)cc2oc1=O
A) > 100 µM

Q) Next record, please: COc1ccc(C(=O)OC2C(OC3C(O)COC(O[C@H]4C[C@H]5[C@@H]6CC=C7C[C@@H](O)CC[C@]7(C)[C@H]6CC[C@]5(C)[C@H]4[C@H](C)C(=O)CCC(C)C)C3OC(=O)C(C)C)OCC(O)C2O)cc1 (stereo not given in full)
A) 2.99 µM

Q) Next record, please: CN(C)CCn1c2c(c3ccccc31)CCc1ccccc1-2
A) 28.4 µM

Q) Next record, please: CC(C)[C@H](NC(=O)[C@H](C(C)C)N(Cc1ccccc1)Cc1ccccc1)C(=O)N(C)[C@H](C(=O)N1CCC[C@H]1C(=O)N(C)[C@H](C)C(=O)NCc1ccc2c(c1)OCO2)C(C)C (Bn2Val-V[NMeV]P[dNMeA]-NHPiperonyl)
A) > 83.2 µM

Q) Next record, please: O=C1C(=Cc2cccc(Cl)c2)N=C(c2ccccc2)N1n1c(-c2ccccc2)nc2ccccc2c1=O
A) > 100 µM

Q) Next record, please: CC(SC(=S)N(C)C)C(=O)Nc1nnc(-c2ccc(Cl)cc2)o1 (stereo not given)
A) 69.7 µM

Q) Next record, please: Cc1cccc(C)c1NC(=O)C(=O)C(c1ccccc1Cl)S(=O)(=O)Cc1ccccc1Cl (stereo not given)
A) > 71.7 µM

Q) Next record, please: O=C(O)COc1cc(-c2ccccc2F)nc2cc3c(cc12)OCO3
A) > 100 µM
